- assay.text: Solubility of component (A) in monomers and solvents, visual observation
- Format: physicochemical
- assay.context: 0.1 g in butyl acrylate (1.0 g), visual
- Experimental: The components (A), A-1 to A-4 and A-9 to A-12, (0.1 g) was added to butyl acrylate (1.0 g) or toluene (1.0 g), and the resulting mixture was stirred. The appearance of the mixture was visually observed, and the solubility was evaluated as follows (Table 5). • ⊚: dissolved transparently • ∘: dissolved almost transparently, but turbidity was observed • △: not dissolved
measured.metric: Solubility Butyl acrylate

| line.notation | test.result |
| --- | --- |
| CC(C)(C)c1ccc(Sc2ccc(C(=O)c3ccc(Sc4ccc(C(C)(C)C)cc4)cc3)cc2)cc1 | ○ |
| Cc1ccc(Sc2ccc(C(=O)c3ccc(Sc4ccc(C)cc4C)cc3)cc2)c(C)c1 | ○ |
| CC(C)c1ccc(Sc2ccc(C(=O)c3ccc(Sc4ccc(C(C)C)cc4)cc3)cc2)cc1 | ⊚ |
| Cc1cc(C(C)(C)C)ccc1Sc1ccc(C(=O)c2ccc(Sc3ccc(C(C)(C)C)cc3C)cc2)cc1 | ⊚ |
| Cc1ccc(C)c(Sc2ccc(C(=O)c3ccc(Sc4cc(C)ccc4C)cc3)cc2)c1 | ○ |

QUERY: What value of Solubility Butyl acrylate has been recorded for this entry: S=C(c1ccc(-c2ccccc2)cc1)c1ccc(-c2ccccc2)cc1
RESULT: Δ

QUERY: What value of Solubility Butyl acrylate has been recorded for this entry: Cc1cccc(Sc2ccc(C(=O)c3ccc(Sc4cccc(C)c4)cc3)cc2)c1
RESULT: ○
